- experiment summary: change in splice reporter luminescence, either direction, cell-based, HEK293, spliceosome inhibition project, primary screen (AID 1101);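 further: HEK293 cells carrying a splicing-competent luciferase reporter gene; test concentration not given here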
- condition notes: HEK293 splicing luciferase reporter, 24 h, higher = more signal, called active from +8 up or from −8 down
Activity calls are given as the source filed them.
I'd appreciate it if you could supply z-score values for the items below.

In the examples that follow, each entry is paired with its recorded z-score.
CC(C)(C)OC(=O)CC[C@@]1(C(=O)NCC(O)CO)N=C(c2ccc(OCCCO)cc2)O[C@@H]1c1ccccc1CN=[N+]=[N-] (some centres undefined) :: -0.0605 (inactive)
[N-]=[N+]=Nc1ccccc1[C@@H]1OC(c2ccc(OCCCO)cc2)=N[C@]1(Cc1ccccc1)C(=O)O :: -0.689 (inactive)
CCCN1C(=O)[C@]2(Cc3ccccc31)N=C(c1ccc(OCCCO)cc1)O[C@@H]2c1ccccc1 :: -0.898 (inactive)

Here's the next entry for you.
Asked: // query z-score value for entry `O=C1N(Cc2ccccc2)c2ccccc2C[C@]12N=C(c1ccc(OCCCO)cc1)O[C@@H]2c1ccccc1`
Given back: 0.214 (inactive)

###

- test system: Follistatin-related protein 3 (Homo sapiens) (UniProt O95633)
- Sequence (O95633 whole entry, looked up): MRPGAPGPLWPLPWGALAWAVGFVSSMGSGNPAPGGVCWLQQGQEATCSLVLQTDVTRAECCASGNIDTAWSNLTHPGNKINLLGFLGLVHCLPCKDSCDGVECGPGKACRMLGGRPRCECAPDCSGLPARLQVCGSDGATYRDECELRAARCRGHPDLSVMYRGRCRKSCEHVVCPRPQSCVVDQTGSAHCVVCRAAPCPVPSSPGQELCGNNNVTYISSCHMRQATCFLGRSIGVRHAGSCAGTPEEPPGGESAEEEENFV
- experiment summary: compounds binding follistatin-related protein 3 – biochemical, small-molecule microarray, 635 nm fluorescence, primary screen (AID 1105);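 further: score merges emission near 667 nm and signal to noise per printed spot across three slides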
- condition notes: FSTL3 binding, higher = more signal
I'd appreciate it if you could supply composite z-score values for the items below.

CCOC(=O)C[C@H]1[C@H](OC(=O)c2ccc(C(=O)c3ccccc3)cc2)[C@@H](NC(=O)CC(C)C)c2cc(OCCCO)ccc2N1C(=O)c1ccccc1 :: 1.17
CC1CC/C=C\[C@H]2OC34C=CCN(C(C)C)C(=O)[C@H]3N(CCO)C(=O)[C@@H]4C2C(=O)O1 (stereo partly drawn) :: -1.28

Here's the next entry for you.
Asked: // query composite z-score value for entry CCCCC[C@H]1OC[C@@]23C=C(Br)[C@@H](CC12)[C@@]1(CO1)C3=O (stereo partly drawn)
Given back: -0.0915

###

- test system: Calmodulin-1 (Homo sapiens)
- experiment summary: small molecules binding Ca-loaded calmodulin-1 – biochemical, small-molecule microarray, Cy5-labelled CALM1, plus calcium, artefact control for SMM control-protein annotation, profiling panel (AID 1112);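 further: score merges spot fluorescence with signal to noise from triplicate slides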
- condition notes: Cy5-CALM1 binding fluorescence, higher = more signal
Our labelling divides records by composite z-score into ranges: bottom range: < -0.5; center range: ≥ -0.5 and < -0.02; top range: ≥ -0.02

See these solved cases before continuing.
CCCCC[C@H]1OC[C@@]23C=C(Br)[C@@H](CC12)[C@@]1(CO1)C3=O (stereo partly specified) :: bottom range
C=C(C(=O)CC[C@H](OC(=O)c1ccccc1-c1ccccc1C(=O)O)c1cccc(OCCO)c1)C(C)C :: center range
CC(C)C[C@@H]1NC(=O)[C@@H]2C[C@H](C(=O)NCCCCCCN)[C@H](c3cccc(OCCO)c3)N2C1=O :: center range
CC(C)N1CC=CC23O[C@@H]4C=CCCOC(=O)C4[C@H]2C(=O)N(CCCO)[C@@H]3C1=O (stereo partly specified) :: bottom range
O=C1[C@H]2C=C(I)[C@H](C[C@@H]2OCCOCCO)[C@@]12CO2 :: bottom range
CCCCCN1CC=CC23O[C@@H]4/C=C\CCC(C)OC(=O)C4[C@H]2C(=O)N(C(CO)C(C)C)[C@@H]3C1=O (stereo partly specified) :: bottom range
COc1ccc(CCNC(=O)[C@@H]2c3ccccc3C(=O)N(C3CCCCC3)[C@H]2c2ccc(CO)cc2)cc1 :: center range
[N-]=[N+]=Nc1ccccc1[C@@H]1OC(c2ccc(OCCCO)cc2)=N[C@]1(Cc1ccccc1)C(=O)O :: top range

Asked: Category lookup for the molecule `COc1ccc([Si](C)(C)[C@@H]2[C@@H](CC(=O)N3CCC[C@H]3CO)O[C@]3(C(=O)N(Cc4cccc(N5C(=O)COc6ccccc65)c4)c4ccccc43)[C@H]2C)cc1`
Given back: top range

Asked: Please give the result for `[N-]=[N+]=Nc1ccccc1C[C@@]1(C(N)=O)N=C(c2ccc(OCCCO)cc2)O[C@@H]1c1ccccc1N=[N+]=[N-]` too.
Given back: top range

Asked: Please give the result for `C=CCOC(=O)[C@@]1(Cc2ccccc2)C[C@H]2CO[C@H](c3ccc(OC)cc3)N2C1=O` too.
Given back: bottom range

Asked: Please give the result for O=C(C1N=C(c2ccc(OCCCO)cc2)N(c2ccccc2)O1)N1CCCCC1 (stereo unspecified) too.
Given back: top range

Asked: Please give the result for `COC(=O)[C@@]1(Cc2ccc(OC)cc2)[C@H]2c3cc(C(=O)N4CCCC4)n(CCc4c[nH]c5ccc(O)cc45)c3C[C@H]2CN1C(=O)c1ccccc1` too.
Given back: top range

Asked: Please give the result for `C=C[C@@H](OC)[C@H](OC(=O)Nc1ccc(OC)cc1)c1ccc(O)c(F)c1` too.
Given back: bottom range

Asked: Please give the result for COc1cc(NN2C(C(O)c3ccco3)C=CC3C(=O)N(C)C(=O)C32)cc(OC)c1OC (stereo unspecified) too.
Given back: center range

Asked: Please give the result for `Cc1ccc(F)cc1S(=O)(=O)N[C@@H]1CCN(Cc2ccc(Br)cc2)C1` too.
Given back: bottom range

Asked: Please give the result for `NC(=O)[C@@]1(Cc2ccccc2)COC(c2ccc(OCCCO)cc2)=N1` too.
Given back: top range

Asked: Please give the result for `O=C(NCCN1CCOCC1)[C@@H]1c2ccccc2C(=O)N(Cc2ccccc2Cl)[C@H]1c1ccc(CO)cc1` too.
Given back: bottom range
